Measured values drawn from patent US20210196796A1 for this set.

Molecular target: T1, orthogonal hCD122 receptor (hoRb), hCD122 with H133D and Y134F (human, UniProt P14784 27-550); note: reference of the scale not given here
T1 sequence: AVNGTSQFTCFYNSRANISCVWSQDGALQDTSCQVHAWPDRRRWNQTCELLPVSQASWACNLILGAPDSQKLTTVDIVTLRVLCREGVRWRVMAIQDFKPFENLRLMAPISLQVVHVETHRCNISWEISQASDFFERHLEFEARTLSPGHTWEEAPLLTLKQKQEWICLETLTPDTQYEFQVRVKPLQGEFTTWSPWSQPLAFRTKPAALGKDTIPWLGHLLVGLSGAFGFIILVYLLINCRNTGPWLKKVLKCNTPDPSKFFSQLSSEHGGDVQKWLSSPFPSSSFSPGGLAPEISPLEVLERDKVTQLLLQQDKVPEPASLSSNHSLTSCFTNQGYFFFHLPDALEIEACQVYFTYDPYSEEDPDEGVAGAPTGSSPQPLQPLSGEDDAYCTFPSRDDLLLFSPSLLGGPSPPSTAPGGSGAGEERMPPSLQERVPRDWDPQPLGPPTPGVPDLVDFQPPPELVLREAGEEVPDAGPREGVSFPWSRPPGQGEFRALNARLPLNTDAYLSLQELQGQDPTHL
Test: cell-based or functional assay
Parameter Measured: Relative Proliferation Fold Change 3F8 1:50 (fold)

[a] D109C, SQVLKA (ligand) APTSSSTKKTQLQLSQLLVLLKAILNGINNYKNPKLTRMLTFKFYMPKKATELKHLQCLEEELKPLEEVLNLAQSKNFHLRPRDLISNINVIVLELKGSETTFMCEYACETATIVEFLNRWITFCQSIISTLT
[b] L18V, SQVLKA (ligand) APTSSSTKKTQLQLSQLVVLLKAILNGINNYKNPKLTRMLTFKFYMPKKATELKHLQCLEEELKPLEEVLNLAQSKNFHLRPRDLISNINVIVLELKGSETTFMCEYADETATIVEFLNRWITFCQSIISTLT
Challenge: Between a and b , whose recorded Relative Proliferation Fold Change 3F8 1:50 is greater? Label of pick, please.
Response given: a
(a: 23.2 fold, b: 12 fold)
